target: CYP17 (human testicular microsome) (Homo sapiens, UniProt P05093); construct: using microsomal fraction from human testis (Celsis Cat #S00110) as the enzyme source; tissue Celsis S00110; host or cells: human testis microsomal fraction; assay: CYP17 enzymatic assay (% inhibition at 1 nM) (Biological Example 12); format: biochemical; conditions: compound at 1 nM, read-out: Biological Example No. 12: CYP17 enzymatic assay % inhibition at 1 nM
Sequence (P05093 whole entry): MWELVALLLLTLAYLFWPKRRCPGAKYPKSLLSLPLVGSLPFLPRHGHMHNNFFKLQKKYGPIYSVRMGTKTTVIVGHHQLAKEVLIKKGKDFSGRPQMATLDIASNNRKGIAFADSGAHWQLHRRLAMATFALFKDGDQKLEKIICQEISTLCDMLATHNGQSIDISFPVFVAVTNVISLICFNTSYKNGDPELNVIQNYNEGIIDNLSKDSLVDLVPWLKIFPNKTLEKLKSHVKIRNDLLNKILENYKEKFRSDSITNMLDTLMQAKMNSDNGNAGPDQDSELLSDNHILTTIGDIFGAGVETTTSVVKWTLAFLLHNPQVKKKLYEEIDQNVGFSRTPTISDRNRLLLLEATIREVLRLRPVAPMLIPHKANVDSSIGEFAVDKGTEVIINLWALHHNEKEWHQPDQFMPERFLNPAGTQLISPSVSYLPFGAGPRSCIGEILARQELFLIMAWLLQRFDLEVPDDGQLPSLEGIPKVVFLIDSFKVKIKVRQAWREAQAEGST
reported-metric: inhibition at 0.001 µM

// solved cases for inhibition at 0.001 µM follow
- compound: "CC(=O)N[C@@H]1CC[C@@]2(C)C(=CCC3C2CC[C@]2(C)C(c4cncc(C(F)F)c4)=CCC32)C1 (some centres unmarked)"
  inhibition at 0.001 µM: "> 50%"
- compound: "CC1(C)C2=CCC3C(CC[C@]4(C)C(c5cccnc5)=CCC34)[C@@]2(C)CC/C1=N\\O (some centres unmarked)"
  inhibition at 0.001 µM: "< 10%"

# inhibition at 0.001 µM of CC1CC2C3=CC=C(c4cncc(F)c4)[C@@]3(C)CCC2[C@@]2(C)CCC(=O)C=C12 (some centres unmarked) = 10 to 50%

# inhibition at 0.001 µM of C[C@]12CCNC(=O)C=C1C(F)CC1C2CC[C@]2(C)C(c3cccnc3)=CCC12 (some centres unmarked) = > 50%

# inhibition at 0.001 µM of CC1CC2C3=CC=C(c4cncc(C(F)F)c4)[C@@]3(C)CCC2[C@@]2(C)CCC(=O)C=C12 (some centres unmarked) = < 10%

# inhibition at 0.001 µM of C[C@]12CC[C@H]3[C@@H](CCC45CC4C(O)CC[C@]35C)[C@@H]1CC=C2c1cncc(F)c1 (some centres unmarked) = 10 to 50%

# inhibition at 0.001 µM of C[C@]12CC[C@H]3[C@@H](CC=C4C[C@@H](O)CC[C@@]43C)C1=CC=C2c1cncc(C(F)F)c1 = < 10%

# inhibition at 0.001 µM of CC1(O)C=C2CC[C@@H]3[C@H](CC[C@]4(C)C(c5cccnc5)=CC[C@@H]34)[C@@]2(C)CC1 (some centres unmarked) = 10 to 50%

# inhibition at 0.001 µM of CC1C(O)CC[C@@]2(C)C1CCC1C2CC[C@]2(C)C(c3cncc(F)c3)=CCC12 (some centres unmarked) = < 10%

# inhibition at 0.001 µM of CN1C(=O)CC[C@@]2(C)C1=CCC1C2CC[C@]2(C)C(c3cncc(C(F)F)c3)=CCC12 (some centres unmarked) = < 10%

# inhibition at 0.001 µM of C[C@]12CCC(O)(CCCO)CC1CC[C@@H]1[C@@H]2CC[C@]2(C)C(c3cccnc3)=CC[C@@H]12 (some centres unmarked) = 10 to 50%

----------
target: Cyp21 enzyme (Human HEK 293-Cyp21 stable transfected cells) (Homo sapiens, UniProt P08686); construct: expressed in transfected cells; experiment: CYP21-HEK293 enzymatic assay (IC50) (Biological Example 11); type: cell-based; conditions: HEK 293-Cyp21 cells; read-out: Biological Example No. 11: CYP21-HEK293 enzymatic assay IC50
Sequence (P08686 whole entry): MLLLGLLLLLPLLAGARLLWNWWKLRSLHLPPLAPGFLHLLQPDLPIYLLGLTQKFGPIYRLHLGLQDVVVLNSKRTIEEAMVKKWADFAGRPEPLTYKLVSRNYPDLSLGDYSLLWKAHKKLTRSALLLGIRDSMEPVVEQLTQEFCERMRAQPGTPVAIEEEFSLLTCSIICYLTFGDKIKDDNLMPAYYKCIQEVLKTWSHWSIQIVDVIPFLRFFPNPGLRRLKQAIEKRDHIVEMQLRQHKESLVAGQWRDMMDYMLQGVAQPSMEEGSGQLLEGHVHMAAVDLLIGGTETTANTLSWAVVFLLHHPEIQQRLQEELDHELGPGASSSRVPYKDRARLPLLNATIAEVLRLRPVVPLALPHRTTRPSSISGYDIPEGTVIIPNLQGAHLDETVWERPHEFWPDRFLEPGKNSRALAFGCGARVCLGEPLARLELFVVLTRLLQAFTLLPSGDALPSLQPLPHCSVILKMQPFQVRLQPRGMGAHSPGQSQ
Entries annotated with measured IC50

// solved cases for IC50 follow
- compound: "CC1CC2C(CC[C@]3(C)C(c4cncc(F)c4)=CCC23)[C@@]2(C)CCC(=O)C=C12 (some centres unmarked)"
  tested-on: "Cyp21 enzyme (Human HEK 293-Cyp21 stable transfected cells) (Homo sapiens, UniProt P08686)"
  assay-result: "> 100 nM"
- compound: "CC1CC2C3=CC=C(c4ccc(F)nc4)[C@@]3(C)CCC2[C@@]2(C)CCNC(=O)C=C12 (some centres unmarked)"
  tested-on: "Cyp21 enzyme (Human HEK 293-Cyp21 stable transfected cells) (Homo sapiens, UniProt P08686)"
  assay-result: "> 1000 nM"
- compound: "CCC1CC2C(CC[C@]3(C)C(c4cncc(C(F)F)c4)=CCC23)[C@@]2(C)CCC(=O)C=C12 (some centres unmarked)"
  tested-on: "Cyp21 enzyme (Human HEK 293-Cyp21 stable transfected cells) (Homo sapiens, UniProt P08686)"
  assay-result: "> 1000 nM"
- compound: "C[C@]12CC[C@H]3[C@@H](CCC4=CC(=O)CC[C@@]43C)C1=CC=C2c1cncc(F)c1"
  tested-on: "Cyp21 enzyme (Human HEK 293-Cyp21 stable transfected cells) (Homo sapiens, UniProt P08686)"
  assay-result: "10 to 100 nM"
- compound: "C[C@]12C=CC(=NO)C=C1C1(CC1)C[C@@H]1[C@@H]2CC[C@]2(C)C(c3cccnc3)=CC[C@@H]12"
  tested-on: "Cyp21 enzyme (Human HEK 293-Cyp21 stable transfected cells) (Homo sapiens, UniProt P08686)"
  assay-result: "> 100 nM"

# IC50 of CC1CC2C3=CC=C(c4cncc(C(F)F)c4)[C@@]3(C)CCC2[C@@]2(C)CCC(=O)C=C12 (some centres unmarked) = > 1000 nM

# IC50 of C[C@]12CCC(=O)CC1C(=O)CC1C2CC[C@]2(C)C(c3cncc(F)c3)=CCC12 (some centres unmarked) = > 1000 nM

# IC50 of C[C@]12CCC(=NO)C=C1C(F)CC1C2CC[C@]2(C)C(c3cccnc3)=CCC12 (some centres unmarked) = > 1000 nM
